Tested on: Hypothalamus
assay_remarks: Increase in phospho-AMPK levels in H1RKO mouse hyphalamic slices at 500 nM after 30 mins by Western blotting
Assay type: functional, tissue-based
Activity calls are given as the source filed them. The calls are words filed in the database; no cut-off is given here.
Please answer using one outcome listed in active, inactive

Example entries and their recorded answers appear below.
[
  {
    "compound": "O=C1Cc2cc(CCN3CCN(c4nsc5ccccc45)CC3)c(Cl)cc2N1",
    "answer_label": "inactive"
  },
  {
    "compound": "CN1CCN(C2=Nc3cc(Cl)ccc3Nc3ccccc32)CC1 [CLOZAPINE]",
    "answer_label": "active"
  },
  {
    "compound": "OCCOCCN1CCN(C2=Nc3ccccc3Sc3ccccc32)CC1",
    "answer_label": "active"
  }
]

### Prompt # fetch the recorded call for Cc1ccc(/C(=C\CN2CCCC2)c2ccccn2)cc1 here
### Response active

### Prompt Try this compound next: O=C1CCc2ccc(OCCCCN3CCN(c4cccc(Cl)c4Cl)CC3)cc2N1 [ARIPIPRAZOLE]
### Response inactive

### Prompt Try this compound next: O=C(CCCN1CCC(O)(c2ccc(Cl)cc2)CC1)c1ccc(F)cc1
### Response inactive

### Prompt Try this compound next: Cc1cc2c(s1)Nc1ccccc1N=C2N1CCN(C)CC1
### Response active

### Prompt Try this compound next: Cc1nc2n(c(=O)c1CCN1CCC(c3noc4cc(F)ccc34)CC1)CCCC2
### Response inactive
